Test system: NCI-H226
experiment.summary: NCI tumour cell line growth inhibition, 48 h
Activity calls are given as the source filed them. No stated cut-off is given here; in the data, active = GI50 up to about 1.1 µM and inactive = higher.
In this section, each of the compounds is paired with its reported GI50.

compound	GI50
CC(=O)OC1CCC2(C)C(=CCC3C2CCC2(C)C(C(C)C(=O)O)CCC32)C1 (stereo not drawn)	> 100 µM (inactive)
O=C(Cc1nc2c3c(ccc2nc1O)C(=O)c1ccccc1C3=O)C(=O)Nc1ccccc1[N+](=O)[O-]	20.6 µM (inactive)
CC12OC3(C)OC(=O)C(c4ccccc4)(O1)C3(C)O2 (stereo not drawn)	> 100 µM (inactive)
O=C(O)c1c[nH]c2c(Sc3ccccc3)nccc2c1=O	> 100 µM (inactive)
Cc1[nH]c2[nH]c(=S)nc(NC(N)=S)c2c1Cc1ccccc1	> 100 µM (inactive)
COc1cc(C(=O)Oc2ccc3c(c2)OCO3)cc(OC)c1OC	> 100 µM (inactive)
O=C1/C(=C\c2c(-c3ccccc3)[nH]n(-c3ccccc3)c2=O)C(c2ccccc2)=NN1c1ccccc1	> 100 µM (inactive)
C=CCc1cccc2cc(C(=O)NC3CCCCC3)c(=N)oc12	20.1 µM (inactive)
CCOP(=O)(OCC)C(F)(F)Cc1cnc(C)c2c1COC(C)(C)O2	> 10 µM (inactive)
O=S(=O)(c1cc(Cl)ccc1Cl)n1ccnc1	14.5 µM (inactive)
CC(Nc1ccc(S(=O)(=O)NC(=N)N)cc1)c1c2ccccc2nc2ccccc12 (stereo not drawn)	19.6 µM (inactive)
COc1ccc(N2C(=O)C3c4[nH]c5cccc(C)c5c4C4CCC(C(C)(C)C)CC4C3C2=O)cc1 (stereo not drawn)	> 10 µM (inactive)
Cc1ccc(C2CC(=O)CC(c3ccc(C)cc3)C23C(=O)NC(=O)NC3=O)cc1 (stereo not drawn)	> 100 µM (inactive)
O=C(c1ccc(Cl)c(Cl)c1)N(C(=S)OC12CC3CC(CC(C3)C1)C2)c1ccccc1	31.2 µM (inactive)
CN(/N=C/c1ccccn1)C1=NCCCCN1	> 100 µM (inactive)
CCOP(=O)(OCC)/C(C#N)=C/c1cn(C)cn1	> 100 µM (inactive)
COC(=O)NC1C(C)OC(OC2C/C=C(/C)C3C=CC4C(OC5CC(OC6CC(O)C(OC7CC(O)C(OC)C(C)O7)C(C)O6)C(O)C(C)O5)C(C)CC(C)C4C3(C)C(=O)C3=C(O)C4(CC(C)C(CO)=CC4/C=C\2C)OC3=O)CC1(C)[N+](=O)[O-] (stereo not drawn)	11.7 µM (inactive)
CC(C)(C)C1CCN(C(=O)c2ccccc2)CC1	> 100 µM (inactive)
COC1=C(C)C(=O)C2C(C1=O)C(c1ccc(OC)c(OC)c1)[C@H]2C (stereo partly drawn)	> 100 µM (inactive)
Cc1[nH]c(=O)nc(S)c1C(=O)Nc1cccc2cc3ccccc3cc12	> 100 µM (inactive)
CC(=O)Nc1ccc(-c2nc3cc(Cl)ccc3o2)cc1	24.5 µM (inactive)
CCCC(C)C[C@@H](C)CC(C)/C=C(\C)c1oc(=O)c(C)c(O)c1C.CC[C@@H](C)C[C@@H](C)C[C@@H](C)/C=C(\C)c1oc(=O)c(C)c(O)c1C (stereo partly drawn)	15.5 µM (inactive)
O=P(NC12CC3CC(CC(C3)C1)C2)(N1CC1)N1CC1	41.6 µM (inactive)
COC(=O)C1=COC(OC2OC(CO)C(O)C(O)C2O)C2C3CN4CCc5c([nH]c6ccccc56)C4(CC12)O3 (stereo not drawn)	> 100 µM (inactive)
O=C1OC(=O)C([Se]c2ccccc2)=C1[Se]c1ccccc1	> 100 µM (inactive)
COc1ccc([N+]2=NC(c3ccc([N+](=O)[O-])cc3)=NN(c3ccccc3)C2)cc1.[O-][Cl+3]([O-])([O-])[O-]	> 100 µM (inactive)
Cc1ncc([N+](=O)[O-])n1CC(O)Cn1ccnc1[N+](=O)[O-] (stereo not drawn)	> 100 µM (inactive)
O=NN(CCCl)C(=O)N[C@H]1CC[C@H](CC(=O)O)CC1	> 100 µM (inactive)
O=[N+]([O-])c1cccc2nnccc12	16 µM (inactive)
O=C(/C=C/c1ccc(-c2ccccc2[N+](=O)[O-])o1)NCc1ccc(C(=O)NCCc2ccccc2)cc1	> 100 µM (inactive)
S=P1(Sc2ccccc2)Oc2ccc3ccccc3c2-c2c(ccc3ccccc23)O1	> 100 µM (inactive)
O/N=C1\CC2(N3CCOCC3)CCC1(Cc1ccccc1)CC2	35 µM (inactive)
CC12CCC3(OCCO3)C(OC(=O)c3ccccc3)=C1CCC21OCCO1 (stereo not drawn)	4.7 µM (inactive)
COc1cccc(/N=N/C(=N/NC(=O)c2cc(Cl)ccc2O)c2ccc(N(CCC#N)CCC#N)cc2C)c1	26.2 µM (inactive)
Cn1c(=O)c2nc(CCCc3ccc([N+](=O)[O-])cc3)[nH]c2n(C)c1=O	> 100 µM (inactive)
CC1(C)[C@H]2Cc3cc4nc5ccccn5c4cc3[C@@H]1C2	16.2 µM (inactive)
S=C(Nc1ccccc1)Nc1[nH]c(=S)sc1-c1nc2ccccc2[nH]1	12.2 µM (inactive)
CCSC1=N/C(=C\c2ccco2)C(NN)=N1	> 50 µM (inactive)

----------
Tested on: T47D
experiment.summary: NCI tumour cell line growth inhibition, 48 h
The source made the active and inactive calls. Cut-off read from the data, not from the text of the source: active = GI50 up to about 1.1 µM and inactive = higher.
Outcomes: active, inactive

molecule	label.value
COc1ccc(P2(=S)Oc3ccc(C(c4ccccc4)(c4ccccc4)c4ccccc4)cc3O2)cc1 (configuration not stated)	inactive
COc1cccc(/N=N/C(=N/NC(=O)c2cc(Cl)ccc2O)c2ccc(N(CCC#N)CCC#N)cc2C)c1	inactive
O=c1c(-c2ccccc2)nnc2n(Cc3ccccc3)c3ccccc3n12	inactive
CC1=C(C)C(=O)C(C2=CC(=O)C=CC2=O)=C(C2=CC(=O)C=CC2=O)C1=O	inactive
CON(C(=O)OC(C)(C)C)c1ccccc1	inactive
C=CC1(C)CCC2C(=CCC3C2(C)CC(O)C(O)C3(C)COC2OC(CO)C(O)C(O)C2O)C1 (configuration not stated)	inactive
Cc1ccc(S(=O)(=O)N(CC(O)COc2ccccc2)c2ccc(F)cc2F)cc1 (configuration not stated)	inactive
CCOC(=O)CSc1nnc(CSc2nc(-c3ccccc3)c(-c3ccccc3)[nH]2)n1-c1ccccc1	inactive
CC(C)SC(=S)Sc1c(Cl)c(Cl)nc(Cl)c1Cl	inactive
NS(=O)(=O)c1nnc(NC(=O)Nc2ccc(Cl)c(Cl)c2)s1	inactive
COc1ccc(C(CC2(c3ccc(OC)cc3)SCCCS2)NC(C)=O)cc1 (configuration not stated)	inactive
CCOP(=O)(O)C(C)(C)NC	inactive
CCOP(=O)(/C=C/n1cc(C)c(=O)[nH]c1=O)OCC	inactive
O=C1C(Br)=Cc2c(Cl)sc(Cl)c21	inactive
O=C(CCCN1CCC2(CC1)CC(=O)N(N1CCOCC1)C2=O)c1ccc(F)cc1	inactive
COc1ccc2c(c1)CCN1CCc3cc(OC)c(OC)cc3CC21 (configuration not stated)	inactive
NC(=S)N1N=C2c3ccccc3CCC[C@H]2[C@@H]1c1ccccc1	inactive
O=C1NC(=O)C(C(c2ccc([N+](=O)[O-])cc2)C2C(=O)NC(=O)NC2=O)C(=O)N1	inactive
COc1cc(C2=C(C)[C@@H]3CN(CC=C3c3ccc(Cl)cc3)C2)c(S(=O)(=O)O)cc1OC	inactive
c1ccc(CN2CCC(Nc3ccccc3)(c3nnnn3Cc3ccccc3)CC2)cc1	inactive
O=C(O)c1c[nH]c2c(Sc3ccccc3)nccc2c1=O	inactive
CC1=C(C(=O)NNC(=O)CC#N)CC(C(=O)NNC(=O)CC#N)=C(C)N1	inactive
CC(C)NC(=O)OCCN=C1c2ccccc2CCc2ccccc21	inactive
O=C(c1c2c(cc3c1CC1(Cc4cc5c(cc4C1)CCCC5)C3)CCCC2)C(Br)Br	inactive
O=C(c1ccccc1)c1ccc(N2C(=O)/C(=C/c3cccc([N+](=O)[O-])c3)N=C2c2ccccc2)c(N2C(=O)/C(=C/c3cccc([N+](=O)[O-])c3)N=C2c2ccccc2)c1	inactive
O=C1c2cc3c(cc2NC(c2ccccc2F)C1O)OCO3 (configuration not stated)	inactive
COC(=O)C1=COC(OC2OC(CO)C(O)C(O)C2O)C2C3CN4CCc5c([nH]c6ccccc56)C4(CC12)O3 (configuration not stated)	inactive
COC(=O)C1(Cc2ccc(C)cc2)Cc2c(C)cccc2C1=O (configuration not stated)	inactive
c1ccc(C(OCCN2CC3CCC(C2)N3)c2ccccc2)cc1	inactive
N#CCCC1(CCC#N)S(=O)(=O)OCCOS1(=O)=O	inactive
CSc1ncnc2c1ncn2C1CC(Oc2ccc(C)cc2)C(COc2ccc(C)cc2)O1 (configuration not stated)	inactive
Nc1nc(N)c2cc(CNc3ccc(C(=O)NC(CC(=O)O)C(=O)O)c(Cl)c3)ccc2n1 (configuration not stated)	active

----------
In this section, each of the compounds is paired with its reported GI50.
Tested on: HCC 2998
experiment.summary: NCI tumour cell line growth inhibition, 48 h
The source made the active and inactive calls. Rule as the data show it: active = GI50 up to about 1.1 µM and inactive = higher.

compound	measured.on	GI50
S=P1(Sc2ccccc2)Oc2ccc3ccccc3c2-c2c(ccc3ccccc23)O1	HCC 2998	> 100 µM (inactive)
C/C(CC(=O)Nc1ccccc1C)=N/NS(=O)(=O)c1ccc(C)cc1	HCC 2998	> 100 µM (inactive)
CC(=O)OC1CCC2(C)C(=CCC3C2CCC2(C)C(C(C)C(=O)O)CCC32)C1 (stereo not given)	HCC 2998	57 µM (inactive)
COc1cc(/C=C\c2ccc(Cl)cc2)cc(OC)c1OC	HCC 2998	1.73 µM (inactive)
Cc1cc(O)c2c3c1C(=O)Oc1c(CO)c(O)c(C(=O)O)c(c1O3)C=NN=Cc1c3c(c(CO)c(O)c1C(=O)O)OC(=O)c1c(C)cc(O)c(c1O3)C=NN=C2	HCC 2998	> 100 µM (inactive)
